System: Vero
Test: Cytotoxicity against african green monkey Vero cells assessed as [3H]-hypoxanthine incorporation after 48 hrs
Format: cell-based
Particulars: Chlorocebus sabaeus
Output t for records whose IC50 is lower than 90 µM, f for records at or above 90 µM.

{"Molecule": "O=C1OC[C@H]([C@H](O)c2ccc3c(c2)OCO3)[C@H]1C(=O)c1ccc2c(c1)OCO2", "Group": "f"}
{"Molecule": "CCCCCCC[C@H](C)OC(=O)/C=C/c1ccc(O)c(O)c1", "Group": "t"}
{"Molecule": "CC(=O)O[C@H](c1ccc2c(c1)OCO2)[C@H]1C(=O)OC[C@@H]1C(=O)c1ccc2c(c1)OCO2", "Group": "t"}
{"Molecule": "OC[C@H](Cc1ccc2c(c1)OCO2)[C@H](CO)Cc1ccc2c(c1)OCO2 [DIHYDROCUBEBIN]", "Group": "t"}
{"Molecule": "CCC[C@H](C)OC(=O)/C=C/c1ccc(O)c(O)c1", "Group": "t"}
{"Molecule": "COc1ccc([C@@H](OC(C)=O)[C@H]2COC(=O)[C@@H]2C(=O)c2ccc3c(c2)OCO3)cc1OC", "Group": "f"}
{"Molecule": "O=C1OC[C@H]([C@H](O)c2ccc3c(c2)OCO3)[C@H]1Cc1ccc2c(c1)OCO2", "Group": "f"}
{"Molecule": "O=C1OC[C@@H]([C@H](O)c2ccc3c(c2)OCO3)[C@H]1C(=O)c1ccc2c(c1)OCO2", "Group": "f"}
{"Molecule": "O=C(CC(CO)C(=O)c1ccc2c(c1)OCO2)c1ccc2c(c1)OCO2 (stereo unspecified)", "Group": "f"}
{"Molecule": "O=C(O)/C=C/c1ccc(O)c(O)c1", "Group": "f"}
